Origin of the recorded values: patent US8815857B2

molecules and their reported EC50
Target: Recombinant human soluble guanylate cyclase (sGC), alpha 1 / beta 1 subunits, heme-free (Homo sapiens, UniProt Q02108+Q02153)
Construct: histidine tag (C); made in house; host or cells: Sf9 insect cells (baculovirus coinfection)
Experiment: Molecular assay: cGMP formation by heme-free recombinant sGC (CisBio cGMP detection kit)
Assay type: biochemical
Details: 300 pM heme-free sGC, 37° C., 60 min, cGMP readout; read-out: EC50 nM, Activity of Compounds in Molecular Assay

# molecule, EC50 [nM]
rows = [
    ("CCC(=O)N1CCN(Cc2ccc(COc3ccc(C)cc3-c3csc(N4CCC(C(=O)O)CC4)n3)c(C)c2)CC1", 150),
    ("Cc1ccc(OCc2ccc(C(=O)N3CCCCC3)cc2C)c(-c2csc(C3=CCC(C(=O)O)CC3)n2)c1 (stereo not shown)", 310),
    ("Cc1ccc(OCc2ccc(C(=O)N3CCCCC3)cc2C)c(-c2csc(N3CCC(C(=O)O)C(C)C3)n2)c1 (stereo not shown)", 12000),
    ("Cc1ccc(OCc2ccc(C(=O)N(C)CC3CCCCC3)cc2C)c(-c2csc(N3CCC(C(=O)O)CC3)n2)c1", 91),
]

###

Biological target: Recombinant human soluble guanylate cyclase (sGC), alpha 1 / beta 1 subunits, heme-free (Homo sapiens, UniProt Q02108+Q02153)
Construct: histidine tag (C); made in house; host or cells: Sf9 insect cells (baculovirus coinfection)
Experiment: Molecular assay: cGMP formation by heme-free recombinant sGC (CisBio cGMP detection kit)
Assay type: biochemical
Conditions: 300 pM heme-free sGC, 37° C., 60 min, cGMP readout; read-out: EC50 nM, Activity of Compounds in Molecular Assay
Entries and their EC50 values follow.
measured quantity: EC50

# compound, observed value
data = [
    ("Cc1cc(CN2CCS(=O)(=O)CC2)ccc1COc1ccccc1-c1csc(N2CCC(C(=O)O)C(C)C2)n1 (stereo not shown)", "71 nM"),
    ("Cc1cc(CN2CCS(=O)(=O)CC2)ccc1COc1ccc(F)cc1-c1csc(N2CCC(C(=O)O)CC2C)n1 (stereo not shown)", "88 nM"),
    ("Cc1cc(CN2CCS(=O)(=O)CC2)ccc1COc1ccc(F)cc1-c1csc(N2CCC(C(=O)O)CC2)n1", "74 nM"),
    ("Cc1cc(CN2CCOCC2)ccc1COc1ccc(Cl)cc1-c1csc(N2C3CCC2CC(C(=O)O)C3)n1 (stereo not shown)", "440 nM"),
]

###

Target: human soluble guanylate cyclase alpha 1 and beta 1 subunits (sGC) stably expressed in Chinese hamster ovary cells (Homo sapiens, UniProt Q02108+Q02153)
Construct: expressed in transfected cells; host or cells: Chinese hamster ovary cells, stably transfected
Sequence (Q02108 1-690 partner): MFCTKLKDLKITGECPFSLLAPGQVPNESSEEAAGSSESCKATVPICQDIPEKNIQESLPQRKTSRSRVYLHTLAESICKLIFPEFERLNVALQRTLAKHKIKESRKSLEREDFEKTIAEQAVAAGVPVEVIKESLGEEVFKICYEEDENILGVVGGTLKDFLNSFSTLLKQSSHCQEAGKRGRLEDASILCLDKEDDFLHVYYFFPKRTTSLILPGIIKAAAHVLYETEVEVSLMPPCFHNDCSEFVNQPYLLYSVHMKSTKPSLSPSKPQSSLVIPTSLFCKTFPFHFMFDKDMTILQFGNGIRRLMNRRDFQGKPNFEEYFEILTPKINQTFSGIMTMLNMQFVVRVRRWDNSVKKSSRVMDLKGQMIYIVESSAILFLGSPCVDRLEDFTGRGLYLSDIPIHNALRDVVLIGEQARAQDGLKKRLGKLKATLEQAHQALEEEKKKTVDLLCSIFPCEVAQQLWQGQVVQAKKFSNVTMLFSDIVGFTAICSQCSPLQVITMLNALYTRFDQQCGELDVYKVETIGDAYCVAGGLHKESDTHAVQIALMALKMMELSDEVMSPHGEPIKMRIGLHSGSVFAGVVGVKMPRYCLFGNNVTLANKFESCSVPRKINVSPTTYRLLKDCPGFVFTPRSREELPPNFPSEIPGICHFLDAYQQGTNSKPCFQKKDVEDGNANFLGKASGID
Sequence (Q02153 1-619): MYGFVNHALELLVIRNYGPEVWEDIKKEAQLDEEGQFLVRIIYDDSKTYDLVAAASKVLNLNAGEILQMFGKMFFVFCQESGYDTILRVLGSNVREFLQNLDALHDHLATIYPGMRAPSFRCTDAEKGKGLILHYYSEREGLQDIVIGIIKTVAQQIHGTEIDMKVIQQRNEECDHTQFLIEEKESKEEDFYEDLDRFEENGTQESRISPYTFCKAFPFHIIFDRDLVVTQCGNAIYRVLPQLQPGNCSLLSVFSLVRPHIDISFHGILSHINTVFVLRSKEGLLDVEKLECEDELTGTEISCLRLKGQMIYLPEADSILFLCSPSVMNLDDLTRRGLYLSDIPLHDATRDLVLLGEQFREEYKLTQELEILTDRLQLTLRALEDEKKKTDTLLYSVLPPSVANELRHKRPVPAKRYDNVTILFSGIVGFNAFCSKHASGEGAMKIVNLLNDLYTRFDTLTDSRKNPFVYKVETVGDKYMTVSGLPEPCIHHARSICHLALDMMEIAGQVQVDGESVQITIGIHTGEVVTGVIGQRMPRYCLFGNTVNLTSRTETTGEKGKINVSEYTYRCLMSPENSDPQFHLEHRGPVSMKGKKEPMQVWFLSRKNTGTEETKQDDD
Assay: sGC cellular activator assay: cGMP in CHO cells expressing human sGC, preincubated with ODQ
Format: cell-based
Details: 40 microM ODQ preincubation, 30 min at room temperature, presence or absence of 50% human serum not given, read-out: EC50 nM, Activity of Compounds in Cellular Assay
measured quantity: log10(EC50) (log10 of the value in nM)

# compound, observed value
rows = [
    ("Cc1ccc(OCc2ccc(C(=O)N3CCOCC3)cc2C)c(-c2csc(N3CC[C@@]4(C(=O)O)C[C@H]4C3)n2)c1", 0.76),
    ("COc1cc(CN2CCOCC2)ccc1COc1ccc(C)cc1-c1csc(N2CCC(C(=O)O)CC2)n1", 1.71),
    ("Cc1ccc(OCc2ccc(C(=O)N3CCC[C@H](O)C3)cc2C)c(-c2csc(N3C[C@H]4CC[C@@H](C3)[C@H]4C(=O)O)n2)c1", 1.85),
    ("Cc1ccc(OCc2ccc(CN3CCOCC3)cc2C)c(-c2csc(N3CC[C@]4(C(=O)O)C[C@@H]4C3)n2)c1", 1.62),
    ("Cc1ccc(OCc2ccc(CN3CCN(C(=O)C4CC4)CC3)cc2C)c(-c2csc(N3CC[C@@]4(C(=O)O)C[C@H]4C3)n2)c1", 0.86),
    ("Cc1ccc(OCc2ccc(C(=O)N3CCCC3)cc2C)c(-c2csc(N3C[C@H]4CC[C@@H](C3)[C@H]4C(=O)O)n2)c1", 0.92),
    ("COC1CCCN(C(=O)c2ccc(COc3ccc(C)cc3-c3csc(N4C[C@H]5CC[C@@H](C4)[C@H]5C(=O)O)n3)c(C)c2)C1 (stereo partly shown)", 1.28),
    ("Cc1ccc(OCc2ccc(C(=O)N3CCN(C)CC3)cc2C)c(-c2csc(N3C[C@H]4CC[C@@H](C3)[C@H]4C(=O)O)n2)c1", 1.64),
    ("Cc1ccc(OCc2ccc(C(=O)N3CCCC(C#N)C3)cc2C)c(-c2csc(N3C[C@H]4CC[C@@H](C3)[C@H]4C(=O)O)n2)c1 (stereo partly shown)", 1.15),
    ("Cc1ccc(OCc2ccc(CN3CCN(C(=O)C4CC4)CC3)cc2C)c(-c2csc(N3C[C@H]4CC[C@@H](C3)[C@H]4C(=O)O)n2)c1", 1.59),
    ("Cc1ccc(OCc2ccc(CN3CCN(C(=O)C4CC4)CC3)cc2C)c(-c2csc(N3CC(C4(C(=O)O)CC4)C3)n2)c1", 2.68),
    ("Cc1cc(CN2CCS(=O)(=O)CC2)ccc1COc1ccc(C#N)cc1-c1csc(N2CCC(C(=O)O)CC2)n1", 2.76),
    ("Cc1ccc(OCc2ccc(C(=O)N3CCCCC3)cc2C)c(-c2csc(N3CC(C4(C(=O)O)CC4)C3)n2)c1", 2.77),
]
